- TARGET: FAD-linked sulfhydryl oxidase ALR (Homo sapiens) (UniProt P55789)
- Sequence (P55789 whole entry, looked up): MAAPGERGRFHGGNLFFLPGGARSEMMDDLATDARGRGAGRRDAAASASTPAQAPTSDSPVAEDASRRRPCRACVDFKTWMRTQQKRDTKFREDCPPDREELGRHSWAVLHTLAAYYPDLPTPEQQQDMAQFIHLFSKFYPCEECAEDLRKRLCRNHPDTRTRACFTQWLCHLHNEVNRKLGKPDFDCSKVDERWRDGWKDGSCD
- ASSAY OVERVIEW: ALR-catalysed DTT oxidation blockers – biochemical, H2O2 detection, HRP-luminol luminescence, single point, primary screen (AID 485317)
- RUN CONDITIONS: purified ALR, stronger effect = higher value, concentration not given here
Screen size: about 290,000 compounds; about 11,000 (3.8%) were called active. This excerpt belongs to a sample that is enriched for actives.
ASSAY ENDPOINT: inhibition (%)
Please state the figure in %; there is no need to write the unit.

The examples below pair each entry with its known result.
CCOc1ccccc1NC(=O)Cc1cccs1: -14.8
CCOc1ccccc1NC(=O)CCc1ccc(C)o1: 99.7
CCOc1ccc(Br)cc1S(=O)(=O)Nc1ccc(S(=O)(=O)Nc2cc(C)on2)cc1: 13.7
COc1cc(C(=O)NCc2nnc(SCC(=O)c3ccc(Cl)cc3)o2)cc(OC)c1OC: -31.3
Cc1csc(=O)n1CC(=O)Nc1ccc(S(C)(=O)=O)cc1: 2.59
COc1ccc(CCC(=O)c2ccc(OC)cc2)cc1: -20.1
O=C(CN1C(=O)NC2(CCCC2)C1=O)Nc1cc(C(F)(F)F)ccc1N1CCOCC1: -1.5
CC(C)Cc1nc(N2CCOCC2)c(C#N)c2c1CCC2: -5.9

[in] Query for FAD-linked sulfhydryl oxidase ALR (Homo sapiens) (UniProt P55789): what inhibition does the record show for COc1ccc(N2CCN(S(=O)(=O)c3cc4c5c(c3)C(C)C(=O)N5CCC4)CC2)cc1 (configuration not stated) ?
[out] 22.9

[in] // repeat for "COc1ccccc1S(=O)(=O)NCc1ccc(C(=O)N(C)Cc2ccc(F)cc2)cc1" and report
[out] -4.34

[in] // repeat for "COC(C/C=C/C(=O)[C@@H](C)OCc1ccccc1)OC" and report
[out] 55.7

---

- TARGET: FAD-linked sulfhydryl oxidase ALR (Homo sapiens)
- ASSAY OVERVIEW: ALR-catalysed DTT oxidation blockers – biochemical, H2O2 detection, HRP-luminol luminescence, single point, primary screen (AID 485317)
- RUN CONDITIONS: purified ALR, concentration not given here
The whole screen tested about 290,000 compounds, of which about 11,000 (3.8%) were called active.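 The calls were made as follows: active = mean replicate inhibition above about 79%, with every replicate also reaching it (limit read from the data); inconclusive = only one of the two criteria met; inactive = mean below limit and not every replicate reaching it.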 The sample as a whole holds a higher share of actives than the screen did.
Give your call using only these classes: TRUE for active, FALSE for inactive

Past entries and their recorded results:
Cc1c(C)n2c(SCC(=O)NC3CCCC3)nnc2[nH]c1=O: FALSE
CCOC(=O)c1c(NC(=O)CSc2nnc(C)c(=O)[nH]2)sc2c1CCC2: TRUE
COc1cccc(N2CC(NS(=O)(=O)c3ccc(Cl)cc3)CC2=O)c1 (stereo not given): FALSE
CCCCNC(=O)N(O)C1N(/N=C/c2ccc(N(C)C)cc2)C(=S)SC1(C)C (stereo not given): TRUE
CCCOC(=O)Nc1sc2c(c1C(=O)OCC)CCC2: FALSE

[in] # fetch the recorded call for Cc1ccc(N2C(=O)C3C(c4ccccc4)(C2=O)C3(c2ccccc2)c2ccccc2)cc1 (stereo not given) here
[out] FALSE

---

- TARGET: FAD-linked sulfhydryl oxidase ALR (Homo sapiens) (UniProt P55789)
- ASSAY OVERVIEW: ALR-catalysed DTT oxidation blockers – biochemical, H2O2 detection, HRP-luminol luminescence, single point, primary screen (AID 485317)
- RUN CONDITIONS: purified ALR, stronger effect = higher value, concentration not given here
Out of some 290,000 compounds screened, about 11,000 (3.8%) were called active. For the sample, actives were picked, then their nearest neighbours and some compounds at random.
ASSAY ENDPOINT: inhibition (%)
Please state the figure in %; there is no need to write the unit.

CCN1C(=O)[C@H]2[C@@H](c3ccc(SC4CCCCC4)c(OC)c3)N[C@@](Cc3ccccc3)(C(=O)OC)[C@H]2C1=O: -5.65
CCCN(CC(=O)Nc1ccccc1C)C(=O)c1ccc2[nH]c3c(c2c1)CC(C)CC3 (stereo not drawn): -1.42
COc1cccc(NC(=O)COC(=O)c2ccc3ccccc3n2)c1: -1.64
Cc1noc(C)c1NC(=O)Nc1ccc2c(c1)C(=O)N([C@H](C)CO)C[C@H](C)[C@@H](CN(C)S(=O)(=O)c1cn(C)cn1)O2: -2.52
Nc1nnc(SCC(=O)NCC(=O)Nc2ccc(F)c(F)c2F)s1: 1.09
O=C(CCCOc1ccccc1)NNC(=O)c1ccc(Cl)cc1: 3.44
CC(C)NC(=O)Nc1cccc2c1O[C@H](CN(C)S(=O)(=O)c1cccs1)[C@@H](C)CN([C@H](C)CO)C2=O: 0.238
CN(CC(=O)Nc1ccccc1Cl)C(=O)c1ccccc1SCC(=O)N1CCCC1: -3.42

Could you now consider this next compound?
[in] Consider the compound "Cc1ccc(O)c(CNc2nc3ccccc3n2C)c1" and give its measured inhibition.
[out] 90.7

---

Reported values of inhibition for individual entries
- TARGET: FAD-linked sulfhydryl oxidase ALR (Homo sapiens)
- ASSAY OVERVIEW: ALR-catalysed DTT oxidation blockers – biochemical, H2O2 detection, HRP-luminol luminescence, single point, primary screen (AID 485317)
- RUN CONDITIONS: purified ALR, stronger effect = higher value, concentration not given here
In all, about 290,000 compounds went through this assay and about 11,000 (3.8%) were called active. The entries come from a sample that favours actives as a whole.
Please state the figure in %; there is no need to write the unit.

The examples below pair each entry with its known result.
Cc1ccc(Nc2nnc(SCc3ccccc3)s2)cc1: -12.9
CC(C)c1ccc(Nc2nnc(SCC(=O)c3nnc(-c4ccccc4)o3)s2)cc1: 98.1
COCCN(Cc1ccccc1)C(=O)Cc1ccc(S(=O)(=O)N2CCOCC2)s1: 2.09
COCCCn1c(SCC(=O)Nc2ccccc2)nnc1-c1ccncc1: -6.22
Cc1ccc(S(=O)(=O)N2CCN(C(=O)CN3C(=O)NC(C)(c4ccc(Cl)cc4)C3=O)CC2)c(C)c1 (centres undefined): -8.79
COc1cc(C2C(C(=O)c3ccc(C)o3)=C(O)C(=O)N2CCc2ccccc2)ccc1O (centres undefined): 51.3
O=C(CSc1nnc(Nc2ccccc2)s1)Nc1cccnc1Cl: 4.27
CCC(=O)N1CCN=C1SCc1ccc(F)cc1: 98.7

[in] Consider the compound "CSC1=NCCN1C(=O)Cc1cccc2ccccc12" and give its measured inhibition.
[out] -43.6

[in] // repeat for "CSc1nnc(-c2ccncc2)n1CCCN1CCCC1=O" and report
[out] 98.1

[in] // repeat for "CC1CCN(C(=O)c2ccc(CSc3ccc(Cl)cc3)cc2)CC1" and report
[out] -6.8

[in] // repeat for "Cc1ccc(NC(=O)COC(=O)C2CC2)cc1S(=O)(=O)N1CCOCC1" and report
[out] 3.43

[in] // repeat for "O=c1nc(N/N=C/c2ccco2)cn[nH]1" and report
[out] -0.901

[in] // repeat for "O=C(C1CC1)N1CCN=C1SCc1ccc(Cl)cc1" and report
[out] 98.3

---

Reported values of inhibition for individual entries
- TARGET: FAD-linked sulfhydryl oxidase ALR (Homo sapiens) (UniProt P55789)
- ASSAY OVERVIEW: ALR-catalysed DTT oxidation blockers – biochemical, H2O2 detection, HRP-luminol luminescence, single point, primary screen (AID 485317)
- RUN CONDITIONS: purified ALR, stronger effect = higher value, concentration not given here
About 11,000 (3.8%) of roughly 290,000 compounds were called active. This excerpt belongs to a sample that is enriched for actives.

The examples below pair each entry with its known result.
C=CCNC(=O)COc1coc(CN2CCN(Cc3ccccc3)CC2)cc1=O: -3.07% (inactive)
CCOc1ccc(NC(=O)CN(C)C(=O)Cn2c(=O)cnc3ccccc32)cc1OCC: -5.33% (inactive)
Cc1cc(C)n(-c2ccc(C(=O)O)cc2[N+](=O)[O-])n1: -3.49% (inactive)
CSCCC(NC(=O)COc1ccccc1)C(=O)OCCOc1ccc(F)cc1 (stereo unspecified): -0.0039% (inactive)
COC(=O)c1ccc2c(=O)n(CCN3CCOCC3)c(SCC(=O)Nc3cccc(OC)c3)nc2c1: 99.1% (active)

[in] Query for FAD-linked sulfhydryl oxidase ALR (Homo sapiens) (UniProt P55789): what inhibition does the record show for "CC(=O)NCCn1c(SCC(=O)Nc2ccc(C)cc2)nc2ccccc2c1=O" ?
[out] -3.53% (inactive)

[in] // repeat for "Cc1csc(NC(=O)c2ccc(C)s2)n1" and report
[out] 27.4% (inactive)

[in] // repeat for "Cc1ccc(CSCC(=O)N(C)CC(=O)Nc2ccc(C)cc2)cc1" and report
[out] -0.0315% (inactive)

[in] // repeat for COc1ccc2c(c1)C=CC1(O2)N(CCO)c2ccccc2C1(C)C (stereo unspecified) and report
[out] -8.22% (inactive)

[in] // repeat for CC(NCC(=O)Nc1ccccc1C(=O)NC1CC1)c1ccccc1Cl (stereo unspecified) and report
[out] -6.65% (inactive)

[in] // repeat for Cc1ccc(CSCC(N)C(=O)O)cc1 (stereo unspecified) and report
[out] 99.1% (active)
